Provenance of the data: PubChem BioAssay (NCATS)

Target: Cytochrome P450 2C19 (Homo sapiens) (UniProt P33261)
Sequence (P33261 whole entry, looked up): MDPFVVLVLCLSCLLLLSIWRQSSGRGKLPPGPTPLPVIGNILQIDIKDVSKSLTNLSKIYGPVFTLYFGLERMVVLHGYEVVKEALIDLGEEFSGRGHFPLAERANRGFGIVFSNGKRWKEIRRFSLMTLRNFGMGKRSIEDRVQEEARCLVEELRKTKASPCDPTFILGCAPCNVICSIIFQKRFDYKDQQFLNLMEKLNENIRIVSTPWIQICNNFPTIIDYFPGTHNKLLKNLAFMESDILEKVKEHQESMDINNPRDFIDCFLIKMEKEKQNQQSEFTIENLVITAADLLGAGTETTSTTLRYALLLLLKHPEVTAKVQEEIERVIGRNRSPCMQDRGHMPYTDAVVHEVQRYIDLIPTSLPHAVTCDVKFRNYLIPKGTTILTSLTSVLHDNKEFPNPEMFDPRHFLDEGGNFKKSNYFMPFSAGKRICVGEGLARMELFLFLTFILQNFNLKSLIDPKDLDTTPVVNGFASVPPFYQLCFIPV
Test: qHTS Assay for Inhibitors and Substrates of Cytochrome P450 2C19 (AID 899); note: nearly all actives have a fitted effect of over 60% in size
Details: recombinant CYP2C19, luciferin-H EGE luminescence; series mostly up to 11.4 µM
Inconclusive results are not listed. Active and inactive are the calls of the source. Calls come from the whole dose curve; as a rule, active = well fitted inhibition curve with a large enough effect; inconclusive = small, poorly fitted or top-dose-only effect; inactive = no such curve, though single readings can be large or run the other way.
Select the matching outcome among active, inactive

How was CC1CCC2C(=O)OC(CN3C(=O)c4ccccc4C3=O)CN2C1c1ccc(Br)cc1 (stereo not drawn) classified in this test?
inactive

Entry COC(=O)NC(/C(C(=O)OC)=C(\C)NCc1ccccc1)c1ccc2ccccc2c1 (stereo not drawn) : call = ?
active

Returns: the outcome recorded for COC1C(O)COC1/C=C/c1ccccc1 (stereo not drawn) in this assay.
inactive

What is the recorded call for this compound in the test? C/C=C/OC(=O)NC(c1cccc(C)c1)[C@@]1(C(=O)OCC)CCCC1=O (stereo partly drawn)
active

Assay result, entry COc1ccc(OCC2CC3C(CCC(C)C3c3ccc(Br)cc3)C(=O)O2)cc1 (stereo not drawn) — outcome?
inactive

How did this test come out for `C[C@H]1COC(=O)[C@H]2CCCN2C(=O)[C@@H](C)COC(=O)[C@H](Cc2ccccc2)NC1=O` ?
inactive

State the result this test recorded for `COc1ccc(O[C@H]2C=C[C@@H](c3ccccc3)O[C@H]2COC(=O)CC/C(C)=N\O[C@@H](C)CN2CCCCc3nc(C)c(C)cc32)cc1` .
active

Per the records of this test, what outcome belongs to `COc1cccc([C@@H]2Oc3ccc(OC)cc3/C(=N/O[C@@H](C)c3cc(-c4c(C)cc(C)cc4C)no3)[C@@H]2O)c1` ?
active

Query: recorded result category for CN(C)c1cccc(OC2C=CC(C#Cc3ccccc3)OC2CO)c1 (stereo not drawn) in this test
active

Please let me know the test result on file for C=C(C)C(=O)OCC1CN2C(CCC(C)C2c2ccc(Br)cc2)C(=O)O1 (stereo not drawn) .
inactive

For this compound, state the assay outcome: CCOC(=O)OCC1OC(C#Cc2ccccc2)C=CC1Oc1cccc(N(C)C)c1 (stereo not drawn)
active

What call does the record list for `C[C@@H]1OC2C3=C(C(=O)[C@H]4O[C@@H]4[C@H]3O)[C@@H]1[C@H]1[C@H](C)OC=C3[C@H](O)[C@H]4O[C@H]4/C(=N\OCc4ccccc4)[C@@]321` ?
inactive

What classification did C=CCc1cccc(C2C(C)CCC3C(=O)N4C(CCC(C)C4c4cccc(CC=C)c4)C(=O)N32)c1 (stereo not drawn) end up with in this test?
inactive

Assay outcome for CCOC(=O)CCCCC1=CC2=CC(=O)C(C)(O)C(=O)C2=CO1 (stereo not drawn) : what was it?
inactive

Which outcome did this test record for the compound CC1CCC2C(=O)N3C(CCC(C)[C@H]3c3ccccc3Br)C(=O)N2C1c1ccccc1Br (stereo partly drawn) ?
inactive

Status in this test for CCN1C(C)=C(C(=O)OC)C(c2ccccc2)N2C(=O)[C@@]3(C(=O)OC)O[C@@]12C1C(=O)N(C)C(=O)C13 (stereo partly drawn) ?
inactive

Hi, do you know how `CC(=O)OC[C@@H]1O[C@H](C/C=N\OCC[C@H]2C=C[C@H](OC(C)=O)[C@@H](COC(C)=O)O2)C=C[C@@H]1OC(C)=O` came out in this test?
inactive

What outcome does the record of this test show for CCOC(=O)OCC1OC(C#Cc2ccc(C(C)(C)C)cc2)C=CC1OC(=O)OCC (stereo not drawn) ?
inactive
